molecules and their reported emission maximum
ASSAY TEXT: solvent given as SMILES
ASSAY CONTEXT: in CCCCCC

- MOLECULE: "C/C(=N\\Nc1ccc(C#N)cc1)c1ccccn1"
  emission maximum: "452 nm"
- MOLECULE: "O=S1(=O)C2=C(c3ccc(-c4ccc(N(c5ccccc5)c5ccccc5)cc4)cc31)C1(C3=C(c4ccccc41)S(=O)(=O)c1cc(-c4ccc(N(c5ccccc5)c5ccccc5)cc4)ccc13)c1ccccc12"
  emission maximum: "485 nm"
- MOLECULE: "CC(=O)c1nc(-c2ccc(N(c3ccccc3)c3ccccc3)cc2)oc1C"
  emission maximum: "385 nm"
- MOLECULE: "CN(c1ccccc1)c1ccc(/C=C/c2ccccc2)cc1"
  emission maximum: "385 nm"
- MOLECULE: "N#C/C=C/c1ccc2ccc3cccc4ccc1c2c34"
  emission maximum: "409.5 nm"
- MOLECULE: "CCC1=C(C)C2=Cc3cscc3B(O)N2C1=O"
  emission maximum: "396 nm"
- MOLECULE: "CN(C)c1ccc(C#Cc2ccc3ccc4c(C#Cc5ccc(N(C)C)cc5)ccc5ccc2c3c54)cc1"
  emission maximum: "460.4 nm"
- MOLECULE: "CCC1=C(C)C2=Cc3ccccc3B(O)N2C1=O"
  emission maximum: "405 nm"
- MOLECULE: "CCC1=C(C)C2=Cc3c4ccccc4c4n3[B-](C)(Oc3ccccc3-4)[N+]2=C1C (stereo not given)"
  emission maximum: "632 nm"
- MOLECULE: "F[B-]1(F)n2ccnc2-c2cccc[n+]21"
  emission maximum: "337 nm"

Req: Please look up its emission maximum: CC(C)[Si](C#Cc1c2nsnc2c(C#C[Si](C(C)C)(C(C)C)C(C)C)c2nc3c(nc12)Cc1ccccc1-3)(C(C)C)C(C)C
Resp: 551 nm

Req: Please look up its emission maximum: Cc1cc(C(F)(F)F)nc2c1ccc1nc(-c3ccc(Cl)cc3)cn12
Resp: 439 nm

Req: Please look up its emission maximum: CC1=N/C(=C\c2cc(N(C)C)ccc2C#N)C(=O)N1C
Resp: 492 nm

Req: Please look up its emission maximum: COc1ccc(-c2nc3ccccc3nc2-c2ccc(OC)cc2)cc1
Resp: 423 nm

Req: Please look up its emission maximum: O=C1Nc2ccccc2/C1=C/C(=O)c1ccccc1
Resp: 374 nm
